Consider the following compounds; for each one, report its CC50 at 5 days.
run description: cytotoxicity on LLC-MK2 monkey kidney epithelial cells
experimental context: monkey, LLC-MK2 monkey kidney epithelial cells, CC50 on LLC-MK2, pure compounds; five days incubation

Sample COc1cccc2c(=O)c3ccc(O)cc3oc12 [HLT4, 3-hydroxy-5-methoxyxanthone] — what was its CC50 at 5 days?
10 to 30 mg/L

Data request, read-out CC50 at 5 days, for O=C(c1cc(O)ccc1O)c1c(O)cccc1O [HLT2, 2,2',5,6'-tetrahydroxybenzophenone]
> 100 mg/L

Recorded CC50 at 5 days for COc1ccc2c(=O)c3cccc(O)c3oc2c1 [HLT3, 5-hydroxy-3-methoxyxanthone] , please?
> 100 mg/L
